Answer each item with its documented ratio to parent.
B1: GFP-Smad4-WT [not stated] / GST-Arl15-AL [human] (parent complex)
chain 1: MDNMSITNTPTSNDACLSIVHSLMCHRQGGESETFAKRAIESLVKKLKEKKDELDSLITAITTNGAHPSKCVTIQRTLDGRLQVAGRKGFPHVIYARLWRWPDLHKNELKHVKYCQYAFDLKCDSVCVNPYHYERVVSPGIDLSGLTLQSNAPSSMMVKDEYVHDFEGQPSLSTEGHSIQTIQHPPSNRASTETYSTPALLAPSESNATSTANFPNIPVASTSQPASILGGSHSEGLLQIASGPQPGQQQNGFTGQPATYHHNSTTTWTGSRTAPYTPNLPHHQNGHLQHHPPMPPHPGHYWPVHNELAFQPPISNHPAPEYWCSIAYFEMDVQVGETFKVPSSCPIVTVDGYVDPSGGDRFCLGQLSNVHRTEAIERARLHIGKGVQLECKGEGDVWVRCLSDHAVFVQSYYLDREAGRAPGDAVHKIYPSAYIKVFDLRQCHRQMQQQAATAQAAAAAQAAAVAGNIPGPGSVGGIAPAISLSAAAGIGVDDLRRLCILRMSFVKGWGPDYPRQSIKETPCWIEIHLHRALQLLDEVLHTMPIADPQPLD
chain 2: MSDLRITEAFLYMDYLCFRALCCKGPPPARPEYDLVCIGLTGSGKTSLLSKLCSESPDNVVSTTGFSIKAVPFQNAILNVKELGGLDNIRKYWSRYYQGSQGVIFVLDSASSEDDLEAARNELHSALQHPQLCTLPFLILANHQDKPAARSVQEIKKYFELEPLARGKRWILQPCSLDDMDALKDSFSQLINLLEEKDHEAVRM

Variants of: B1
PROTOCOL_SUMMARY: GST pull-down, immunoblot band quantification; HEK293T cell lysates; bead-immobilized GST-Arl15-AL; n=3; parent: 1; read off a plot

Hey, can you go through the list below and give me ratio to parent for every item?
1. chain 1 D493H
2. chain 1 L495P
3. chain 1 H541Y
4. chain 1 R496H
5. chain 1 M447K

Response:
1: ~0.9; 2: ~1.3; 3: ~0.37; 4: ~1.1; 5: ~1.1

Hey, can you go through the list below and give me ratio to parent for every item?
1. chain 1 A532D
2. chain 1 E538K
3. chain 1 R497H

Response:
1: ~0.2; 2: ~0.29; 3: ~1

Ref: paper PMC9352346
